Listed here: items and their measured pIC50.
Study system: Factor D (Homo sapiens)
Sequence (P00746 26-253): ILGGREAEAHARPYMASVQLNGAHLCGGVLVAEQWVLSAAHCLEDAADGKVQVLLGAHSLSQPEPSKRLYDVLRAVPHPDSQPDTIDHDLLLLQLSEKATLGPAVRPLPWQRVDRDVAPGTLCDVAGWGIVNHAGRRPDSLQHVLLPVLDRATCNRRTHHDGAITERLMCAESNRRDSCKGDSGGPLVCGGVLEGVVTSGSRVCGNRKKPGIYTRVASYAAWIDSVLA
pIC50: −log10 of the molar value.

- Molecule: "C[C@@]12C[C@@H](C(=O)Nc3cccc(Br)n3)N(C(=O)Cn3c4cc(F)c(Br)cc4c4c(N)ncnc43)[C@@H]1C2 [Compound 390a]"
  pIC50: "> 7.00"
- Molecule: "C[C@@]1(F)C[C@@H](C(=O)NCc2cccc(Cl)c2F)N(C(=O)Cn2cnc3c(N)ncnc32)C1 [Compound 122c]"
  pIC50: "6.00 to 7.00"
- Molecule: "COc1cc(Cl)cc2c3c(N)ncnc3n(CC(=O)N3[C@@H]4C[C@@H]4C[C@H]3C(=O)Nc3cccc(Br)n3)c12 [Compound 238g]"
  pIC50: "> 7.00"
- Molecule: "Nc1ncnc2c1ncn2CC(=O)N1[C@@H]2C[C@@H]2C[C@H]1C(=O)OCc1ccccc1 [Compound 94b]"
  pIC50: "< 6.00"
- Molecule: "Nc1ncnc2c1c1cc(CCC(=O)O)ccc1n2CC(=O)N1[C@@H]2C[C@@H]2C[C@H]1C(=O)Nc1cccc(Br)n1 [Compound 165a]"
  pIC50: "> 7.00"

// assay Factor D (Homo sapiens), entry CC1(C)C[C@@H](C(=O)Nc2cccc(Br)n2)N(C(=O)Cn2c3ccc(C(F)(F)F)cc3c3c(N)ncnc32)C1 [Compound 210d] , pIC50 value = 6.00 to 7.00

Known value: Factor D (Homo sapiens) pIC50 of the molecule Cc1ccccc1-c1ccc2c(c1)c1c(N)ncnc1n2CC(=O)N1[C@@H]2C[C@@H]2C[C@H]1C(=O)Nc1cccc(Br)n1 [Compound 197c] equals > 7.00

// molecule Cc1ccc2c3c(N)ncnc3n(CC(=O)N3[C@@H]4C[C@@H]4C[C@H]3C(=O)Nc3cccc(Br)n3)c2c1 [Compound 23f] , assay Factor D (Homo sapiens), pIC50 value: > 7.00

Record for CCOC(=O)c1cccc2c1c1c(N)ncnc1n2CC(=O)N1[C@@H]2C[C@@H]2C[C@H]1C(=O)Nc1cccc(Br)n1 [Compound 46g] under target or system Factor D (Homo sapiens): pIC50 reported as 6.00 to 7.00

Item Cc1ccc2c(c1)c1c(N)ncnc1n2CC(=O)N1C[C@H](F)C[C@H]1C(=O)Nc1cccc(Br)n1 [Compound 21a] was tested on Factor D (Homo sapiens); the reported pIC50 is > 7.00

Factor D (Homo sapiens) pIC50 of CC1(C)CC(O)CC(NC(=O)[C@@H]2C[C@H]3C[C@H]3N2C(=O)Cn2cnc3c(N)ncnc32)C1 (mixture of isomers) [Compound 106b] is < 6.00
